test system: SK-OV-3; assay: Cytotoxicity against human SKOV3 cells after 48 hrs by XTT assay; format: functional, cell-based; details: SK-OV-3, 48 h
Known IC50 of a selection of compounds
# value in µM; strip the unit string

// IC50 value for CCOC(=O)c1ccc(NC(=O)C(=O)c2cn(Cc3ccc(F)cc3)c3ccccc23)cc1 : 3.94

// IC50 value for COc1cc(NC(=O)C(=O)c2cn(Cc3ccc(F)cc3)c3ccccc23)cc(OC)c1OC : 3.78

// IC50 value for O=C(Nc1ccc(Br)cc1)C(=O)c1cn(Cc2ccc(F)cc2)c2ccccc12 : 3.88

// IC50 value for O=C(Nc1cccnc1)C(=O)c1cn(Cc2ccc(F)cc2)c2ccccc12 : 4.69
